- TARGET_UNDER_TEST: human recombinant H-PGDS (Homo sapiens)
- TEST_DESCRIPTION: Slightly modified fluorescence intensity h-PGDS TBA enzyme assay (1:40,000 enzyme, 40 second reaction, 1/2 log dilutions, top concentration typically 10 μM)
- Assay type: biochemical
- SETUP_CONDITIONS: slightly modified assay: 1:40,000 human recombinant H-PGDS
pIC50: −log10 of the molar value.
READOUT_KIND: pIC50

Example entries and their recorded answers appear below.
[[record]]
molecule = "CN(Cc1ccccc1)C(=O)[C@@H]1CCC[C@H](NC(=O)c2ccc(-c3cccc(F)c3)nc2)C1 (relative stereo)"
reported_value = 8.37

[[record]]
molecule = "N[C@H]1CCN(C(=O)[C@H]2CC[C@@H](NC(=O)c3ccc(-c4cccc(F)c4)nc3)C2)C1"
reported_value = 7.54

[[record]]
molecule = "O=C(N[C@H]1CC[C@@H](C(=O)NCc2ccccc2)CC1)c1ccc(-c2cccc(F)c2)nc1"
reported_value = 7.66

[[record]]
molecule = "O=C(N[C@H]1CCC[C@@H](C(=O)N2CCOCC2)C1)c1ccc(-c2cccc(F)c2)nc1 (relative stereo)"
reported_value = 8.08

[[record]]
molecule = "Cc1nccn1C[C@H]1CC[C@@H](NC(=O)c2ccc(-c3cccc(F)c3)nc2)CC1"
reported_value = 7.80


(a) O=C(N[C@H]1CCC[C@@H](C(=O)N[C@@H]2CCNC2=O)C1)c1ccc(-c2cccc(F)c2)nc1 (mixture of isomers) [Example 64G]
(b) C[C@]1(C(=O)O)CC[C@H](NC(=O)c2ccc(-c3cccc(F)c3)nc2)CC1
Ask: // max by pIC50 over [ a , b ] Respond with the label that goes with your answer.
Result: b

====

- TARGET_UNDER_TEST: human recombinant H-PGDS (Homo sapiens)
- TEST_DESCRIPTION: Fluorescence intensity h-PGDS TBA enzyme assay (PGH2 depletion, MDA/TBA fluorescence)
- Type: biochemical
- SETUP_CONDITIONS: 1:175,000 human recombinant H-PGDS, 42 second reaction, 3-fold serial dilutions, highest concentration typically 1 μM
- Method: Fluoresecence Intensity h-PGDSTBA Enzyme Assay Prostaglandin D Synthase (PGDS) converts the substrate prostaglandin H2 (PGH2) to prostaglandin D2. The depletion of PGH2 was measured via an Fe(II) reduction of the remaining PGH2 to malondialdehyde (MDA) and 12-HHT. […]
READOUT_KIND: IC50 (nM)

Example entries and their recorded answers appear below.
[[record]]
compound = "CC[C@H](O)C(=O)N[C@H]1CC[C@H](NC(=O)c2ccc(-c3cccc(F)c3)nc2)CC1 [Example 113L]"
reported_value = 6.1

[[record]]
compound = "COC(=O)C1(NC(=O)c2ccc(-c3cccc(C)c3)nc2)CC1"
reported_value = 246

[[record]]
compound = "CC(C)(N)C(=O)N[C@H]1CC[C@H](NC(=O)c2ccc(-c3cccc(F)c3)nc2)CC1 [Example 113K]"
reported_value = 9.6


(a) CN(C)CC(=O)N[C@H]1CC[C@H](NC(=O)c2ccc(-c3cccc(F)c3)nc2)CC1
(b) O=C(N[C@H]1CC[C@H](C(=O)N[C@@H]2CCNC2=O)CC1)c1ccc(-c2cccc(F)c2)nc1 [Example 113B]
(c) CC(C)(O)C1CCC(NC(=O)c2ccc(-c3cccc(F)c3)nc2)CC1 (centres unmarked)
(d) O=C(NC1CCCCC1)c1ccc(-c2ccc(F)cc2)nc1
(e) CCC(O)[C@H]1CC[C@H](NC(=O)c2ccc(-c3cccc(F)c3)nc2)CC1 (some centres unmarked)
Ask: Please list these compounds in decreasing order of IC50. Hello, could you send the labels back in the order asked? Thank you.
Result: d, a, b, e, c

====

- TARGET_UNDER_TEST: human recombinant H-PGDS (Homo sapiens)
- TEST_DESCRIPTION: Slightly modified fluorescence intensity h-PGDS TBA enzyme assay (1:40,000 enzyme, 40 second reaction, 1/2 log dilutions, top concentration typically 10 μM)
- Format: biochemical
- SETUP_CONDITIONS: slightly modified assay: 1:40,000 human recombinant H-PGDS
READOUT_KIND: IC50 (µM)

[[record]]
compound = "CC(C)(O)[C@H]1CC[C@H](NC(=O)c2ccc(-c3cccc(F)c3)nc2)CC1"
target_under_test = "human recombinant H-PGDS (Homo sapiens)"
reported_value = 0.0029

[[record]]
compound = "CCN(C)C(=O)[C@H]1CC[C@@H](NC(=O)c2ccc(-c3cccc(F)c3)nc2)CC1"
target_under_test = "human recombinant H-PGDS (Homo sapiens)"
reported_value = 0.00642

[[record]]
compound = "O=C(NC1CC1)c1ccc(-c2cccc(F)c2)nc1"
target_under_test = "human recombinant H-PGDS (Homo sapiens)"
reported_value = 0.159


(I) C[C@H]1CN(C(=O)[C@H]2CC[C@H](NC(=O)c3ccc(-c4cccc(F)c4)nc3)CC2)CCN1
(II) O=C(N[C@H]1CCC[C@@H](C(=O)N2CCNCC2)C1)c1ccc(-c2cccc(F)c2)nc1 (relative stereo)
(III) CN1CCN(C2CCC(NC(=O)c3ccc(-c4cccc(F)c4)nc3)CC2)CC1 (single isomer, unassigned) [Example 51]
(IV) O=C(N[C@H]1CC[C@@H](C(=O)O)CC1)c1ccc(-c2cccc(F)c2)nc1
(V) CO[C@H]1CC[C@H](NC(=O)c2ccc(-c3cccc(F)c3)nc2)CC1
Ask: Provide the items ranked by increasing IC50. Hello, could you send the labels back in the order asked? Thank you.
Result: V, II, I, IV, III

====

- TARGET_UNDER_TEST: human recombinant H-PGDS (Homo sapiens)
- TEST_DESCRIPTION: Slightly modified fluorescence intensity h-PGDS TBA enzyme assay (1:40,000 enzyme, 40 second reaction, 1/2 log dilutions, top concentration typically 10 μM)
- Format: biochemical
- SETUP_CONDITIONS: slightly modified assay: 1:40,000 human recombinant H-PGDS
READOUT_KIND: IC50 (nM)

Example entries and their recorded answers appear below.
[[record]]
compound = "O=C(N[C@H]1CC[C@H](CN2CCOCC2)CC1)c1ccc(-c2cccc(F)c2)nc1"
reported_value = 5.9

[[record]]
compound = "CSc1nccn1C1CCC(NC(=O)c2ccc(-c3cccc(F)c3)nc2)CC1 (centres unmarked)"
reported_value = 10.5

[[record]]
compound = "CC(C)c1nccn1[C@H]1CC[C@H](NC(=O)c2ccc(-c3cccc(F)c3)nc2)CC1"
reported_value = 14.2

[[record]]
compound = "O=C(NC1CCc2ncccc2C1)c1ccc(-c2cccc(F)c2)nc1 (centres unmarked)"
reported_value = 5.03

[[record]]
compound = "N[C@@H]1CCCC[C@H]1NC(=O)[C@@H]1CCC[C@H](NC(=O)c2ccc(-c3cccc(F)c3)nc2)C1 (mixture of isomers) [Example 64C]"
reported_value = 47

[[record]]
compound = "CCN1CCC(NC(=O)[C@@H]2CCC[C@H](NC(=O)c3ccc(-c4cccc(F)c4)nc3)C2)CC1 (relative stereo) [Example 64M]"
reported_value = 509


(P) CN[C@H]1CC[C@H](NC(=O)c2ccc(-c3cccc(F)c3)nc2)CC1
(Q) C[C@]1(C(=O)O)CC[C@@H](NC(=O)c2ccc(-c3cccc(F)c3)nc2)CC1
Ask: Between P and Q , which one shows the smaller IC50 number? Respond with the label that goes with your answer.
Result: P

====

- TARGET_UNDER_TEST: human recombinant H-PGDS (Homo sapiens, UniProt O60760)
- Sequence (O60760 whole entry): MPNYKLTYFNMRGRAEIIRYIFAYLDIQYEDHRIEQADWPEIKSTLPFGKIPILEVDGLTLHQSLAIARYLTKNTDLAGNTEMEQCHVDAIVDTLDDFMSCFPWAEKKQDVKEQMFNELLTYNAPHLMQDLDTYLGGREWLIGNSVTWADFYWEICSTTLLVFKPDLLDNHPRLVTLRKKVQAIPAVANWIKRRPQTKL
- TEST_DESCRIPTION: Slightly modified fluorescence intensity h-PGDS TBA enzyme assay (1:40,000 enzyme, 40 second reaction, 1/2 log dilutions, top concentration typically 10 μM)
- Assay type: biochemical
- SETUP_CONDITIONS: slightly modified assay: 1:40,000 human recombinant H-PGDS
pIC50: −log10 of the molar value.
READOUT_KIND: pIC50

Example entries and their recorded answers appear below.
[[record]]
chem_smiles = "Cc1nccn1[C@H]1CC[C@H](NC(=O)c2ccc(-c3cccc(F)c3)nc2)CC1"
target_under_test = "human recombinant H-PGDS (Homo sapiens, UniProt O60760)"
reported_value = 7.83

[[record]]
chem_smiles = "C[C@]1(O)CC[C@H](NC(=O)c2ccc(-c3cccc(F)c3)nc2)CC1"
target_under_test = "human recombinant H-PGDS (Homo sapiens, UniProt O60760)"
reported_value = 8.06


(a) O=C(N[C@@H]1CC[C@H](C(=O)N2CCC(O)CC2)C1)c1ccc(-c2cccc(F)c2)nc1
(b) Cn1nnnc1O[C@H]1CC[C@H](NC(=O)c2ccc(-c3cccc(F)c3)nc2)CC1
Ask: Between a and b , which one shows the smaller pIC50 number? Respond with the label that goes with your answer.
Result: b

====

- TARGET_UNDER_TEST: human recombinant H-PGDS (Homo sapiens, UniProt O60760)
- TEST_DESCRIPTION: Slightly modified fluorescence intensity h-PGDS TBA enzyme assay (1:40,000 enzyme, 40 second reaction, 1/2 log dilutions, top concentration typically 10 μM)
- Assay type: biochemical
- SETUP_CONDITIONS: slightly modified assay: 1:40,000 human recombinant H-PGDS
pIC50: −log10 of the molar value.
READOUT_KIND: pIC50

[[record]]
molecule = "CN1CCN(C(=O)[C@@H]2CCC[C@H](NC(=O)c3ccc(-c4cccc(F)c4)nc3)C2)CC1 (relative stereo)"
reported_value = 8.08


(A) O=C(N[C@H]1CCC[C@@H](C(=O)NCCCO)C1)c1ccc(-c2cccc(F)c2)nc1 (relative stereo) [Example 64E]
(B) O=C(N[C@H]1CCC[C@H]1C(=O)O)c1ccc(-c2cccc(F)c2)nc1
Ask: // max by pIC50 over [ A , B ] Respond with the label that goes with your answer.
Result: A
